- Protocol text: physchem
- Condition label: 37 °C, pH 6.5, aqueous with cosolvent or surfactant or cyclodextrin, kinetic from dmso stock
Readout kind: solubility at 30 min (µg/mL)
Numbers only, in µg/mL.

Q. Consider the compound O=C1NC(=O)C(c2ccccc2)(c2ccccc2)N1 and give its measured solubility at 30 min.
A. 75

###

- Protocol text: physchem
- Condition label: 37 °C, pH 6.5, aqueous with cosolvent or surfactant or cyclodextrin, kinetic from dmso stock
Readout kind: solubility at 90 min (µg/mL)
Answers are plain numbers, in µg/mL.

Q. Quick one: solubility at 90 min for O=C1NC(=O)C(c2ccccc2)(c2ccccc2)N1 [Phenytoin] ?
A. 70

###

- Protocol text: Supersaturation (maintenance) test with Nilutamide
- Condition label: phosphate buffer saline with 0.5 wt. % FaSSIF, 37 °C, pH 6.5, aqueous with cosolvent or surfactant or cyclodextrin, kinetic from dmso stock
Readout kind: solubility at 90 min
The reply must contain the numeric value and, after it, the unit.

Q. What measured solubility at 90 min goes with CC1(C)NC(=O)N(c2ccc([N+](=O)[O-])c(C(F)(F)F)c2)C1=O [Nilutamide] ?
A. 364 µg/mL

###

- Protocol text: physchem
- Condition label: 37 °C, pH 6.5, aqueous with cosolvent or surfactant or cyclodextrin, kinetic from dmso stock
Readout kind: solubility at 180 min (µg/mL)
Answers are plain numbers, in µg/mL.

Q. Look at this compound and give its reported solubility at 180 min. O=C1NC(=O)C(c2ccccc2)(c2ccccc2)N1
A. 73
